Tested on: HCMV TB40/E strain
Experiment: Plaque reduction assay, HCMV TB40/E strain in human foreskin fibroblasts, single drugs and 2-drug combinations (Chou-Talalay)
Type: cell-based, human cytomegalovirus
Conditions: Fa 0.97, drug alone
ENDPOINT: Dose of drug alone at Fa 0.97 (µm)
I only need the number, in µm, no unit after it.

INSERT INTO assay_data (structure_smiles_string, assay_system, endpoint, unit_abbrev, data_value) VALUES
  ('CC(C)Nc1nc2cc(Cl)c(Cl)cc2n1[C@H]1O[C@@H](CO)[C@H](O)[C@@H]1O', 'HCMV TB40/E strain', 'Dose of drug alone at Fa 0.97', 'µm', 16.5865);

Would you mind telling me what Dose of drug alone at Fa 0.97 value was observed for `Nc1ccn(C[C@@H](CO)OCP(=O)(O)O)c(=O)n1` ?
2.242

Which Dose of drug alone at Fa 0.97 is reported for this compound? `COc1cccc(N2CCN(C3=Nc4c(F)cccc4[C@H](CC(=O)O)N3c3cc(C(F)(F)F)ccc3OC)CC2)c1`
0.02351

Reported Dose of drug alone at Fa 0.97, compound `Nc1nc2c(ncn2COC(CO)CO)c(=O)[nH]1` : ____
4.491

###

Test system: HCMV TB40/E strain
Assay: Plaque reduction assay, HCMV TB40/E strain in human foreskin fibroblasts, single drugs and 2-drug combinations (Chou-Talalay)
Format: cell-based, human cytomegalovirus
Conditions: Human betaherpesvirus 5, Fibroblast, drug alone, human foreskin fibroblasts; read-out: EC50 (concentration that reduced the plaque formation by 50%)
This section presents compounds with their documented pEC50 values.
pEC50 field: float, defined as -log10 of concentration (mol/L).

Completed entries (count: 4):
INSERT INTO measurements (compound, data_value) VALUES
  ('COc1cccc(N2CCN(C3=Nc4c(F)cccc4[C@H](CC(=O)O)N3c3cc(C(F)(F)F)ccc3OC)CC2)c1 [letermovir]', 8.30),
  ('CC(C)Nc1nc2cc(Cl)c(Cl)cc2n1[C@H]1O[C@@H](CO)[C@H](O)[C@@H]1O [maribavir]', 6.00),
  ('OC[C@H]1O[C@@H](n2c(Br)nc3cc(Cl)c(Cl)cc32)[C@H](O)[C@@H]1O [BDCRB]', 6.30),
  ('Nc1nc2c(ncn2COC(CO)CO)c(=O)[nH]1 [ganciclovir]', 6.00);

Param readout= pEC50; system= HCMV TB40/E strain; entry= CC1CCC2[C@@H](C)[C@H](N3CCS(=O)(=O)CC3)OC3O[C@]4(C)CCC1C32OO4 (stereo in doubt) [artemisone] ; returns value.
6.00
